Test system: ACHN
method: NCI tumour cell line growth inhibition, 48 h
Calls of active or inactive are those of the source. Cut-off read from the data, not from the text of the source: active = GI50 up to about 1.1 µM and inactive = higher.
Record form. Attribute: GI50. Fill in for each entry.

The compound listed as C/C(=C\c1ccccc1)C(O)C(=O)c1nc2ccc(Cl)cc2nc1O (centres undefined) has a reported GI50 of > 100 µM (inactive)

Record CC1=C(C(=O)Nc2ccc([N+](=O)[O-])cc2)C(c2cccc([N+](=O)[O-])c2)C(C(=O)Nc2ccc([N+](=O)[O-])cc2)=C(C)N1 , field GI50: 20 µM (inactive)

Entry under test: COC(=O)[C@]12CC3C=CC1N(C3)C(CBr)c1c2n(S(=O)(=O)c2ccccc2)c2ccccc12 (some centres undefined) . Its GI50 was 48.3 µM (inactive)

For record C[C@]12CCC3c4ccc(OC(=O)c5ccccc5)cc4CC[C@H]3C1CC[C@@H]2OC(=O)C12OC1CCC2=O (some centres undefined) the listed GI50 is 5.27 µM (inactive)

So for C1CCN(C2OC3C(COC3N3CCCCC3)OC2OC2CCO[C@@H]2N2CCCCC2)CC1 (some centres undefined) , the logged GI50 turned out to be 25.9 µM (inactive)

In plain terms, O=C(O)C1Cc2[nH]c3ccccc3c2C2CCCC12 (centres undefined) has a documented GI50 of > 100 µM (inactive)

Please fill in: GI50 reported for CSc1n[n+](C)cc(N)c1N = > 100 µM (inactive)

The compound listed as O=C1Oc2ccccc2C(=O)/C1=C1/C=C(c2ccccc2)SS1 shows GI50 equal to > 100 µM (inactive)

Consider C=CCOC1=C(OC(C)=O)C(C2COC(C)(C)O2)OC1=O (centres undefined) . Its measured GI50 is 17.9 µM (inactive)
